Source listed as ChEMBL document CHEMBL5104117.

- Experimental details: Inhibition of C-terminal His tagged Bacillus subtilis ClpY/ClpQ expressed in Escherichia coli BL21 (DE3) using Cbz-Gly-Gly-Leu-AMC as peptide substrate by Cheng-prusoff equation analysis
// assign 1 (yes) if Ki falls strictly below 1000 nM, else 0 (no) (ties count as 0 (no))

Consider the following illustrative entries.
>>> print(df.to_string())
                                   compound  discrete_label
0  CCCCCCc1c(O)c(Cl)cc2c1OC1(C2=O)C(Cl)=C(Cl)C(=O)N1Cc1ccc(C(F)(F)F)cc1 (configuration not stated)         1 (yes)
1  CCCCCCc1c(O)c(Cl)cc2c1OC1(C2=O)C(Cl)=C(Cl)C(=O)N1Cc1ccc(C)cc1 (configuration not stated)         1 (yes)
2  CCCCCCc1c(O)c(Cl)cc2c1OC1(C2=O)C(Cl)=C(Cl)C(=O)N1C (configuration not stated)          0 (no)

Strictly below 1000 nM: is that where Ki of CCCCCCc1c(O)c(Cl)cc2c1OC1(C2=O)C(Cl)=C(Cl)C(=O)N1CCc1ccccc1 (configuration not stated) sits? 1 (yes)

For CCCCCCc1c(O)c(Cl)cc2c1OC1(C2=O)C(Cl)=C(Cl)C(=O)N1Cc1ccccc1 (configuration not stated) , is the recorded Ki below the cut-off of 1000 nM? 1 (yes)

Would you kindly verify if Ki of CCCCCCc1c(O)c(Cl)cc2c1OC1(C2=O)C(Cl)=C(Cl)C(=O)N1CCCCCC (configuration not stated) is strictly less than 1000 nM? 0 (no)
